- Measured target: T1, IL1RAP on HEK-Blue IL1β / HEK-Blue IL33 reporter cells (UniProt Q9NPH3 21-570, limits assumed)
- T1 sequence (looked up): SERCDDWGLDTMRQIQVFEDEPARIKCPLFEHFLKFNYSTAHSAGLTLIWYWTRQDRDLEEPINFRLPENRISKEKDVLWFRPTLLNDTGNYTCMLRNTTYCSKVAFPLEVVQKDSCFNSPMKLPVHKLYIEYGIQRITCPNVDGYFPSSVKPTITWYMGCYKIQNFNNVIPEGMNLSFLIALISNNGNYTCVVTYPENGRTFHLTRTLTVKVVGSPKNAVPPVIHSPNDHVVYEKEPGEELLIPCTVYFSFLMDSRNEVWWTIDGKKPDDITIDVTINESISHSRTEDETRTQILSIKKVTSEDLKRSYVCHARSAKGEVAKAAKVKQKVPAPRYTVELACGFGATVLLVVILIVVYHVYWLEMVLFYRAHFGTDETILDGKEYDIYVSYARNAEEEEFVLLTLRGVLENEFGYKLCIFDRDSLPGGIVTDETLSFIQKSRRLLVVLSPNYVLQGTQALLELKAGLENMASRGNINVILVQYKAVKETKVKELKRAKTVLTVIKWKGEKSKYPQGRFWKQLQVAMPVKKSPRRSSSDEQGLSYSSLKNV
- Test: cell-based or functional assay
Assay endpoint: IC50, HEK-BlueIL33 NFκB Reporter Assay

Guide cases for IC50, HEK-BlueIL33 NFκB Reporter Assay, answers given:
Binder	Observed value
STLX2051 (antibody, V domains shown, Purified from hybridoma of immunized Alivamab mice; intact IgG; captured on anti-mouse IgG Fc sensors in Octet; kappa light chain; also called 74804_51C10A) VH: QVQLLQSGAEVKKPGSSVKVSCKASGGTFNIYAIDWVRQAPGQGLEWMGGIIPIFGTANSAQKFQGRVTITADKSTNTAYMELSSLRSEDTAVYYCARNGATSDAFDIWGQGTMVTVSS VL: EIVLTQSPGTLSLSPGERATLSCRASQSVSSNYLAWFQQRPGQAPRLLIYGVSRRATGIPDRFSGSGSGTDFTLTISRLEPEDFAVYYCQQYGSSPLTFGGGTKVEIK	1.3e-08 M (implied; unit not printed)
STLX2029 (antibody, V domains shown, Purified from hybridoma of immunized Alivamab mice; intact IgG; captured on anti-mouse IgG Fc sensors in Octet; kappa light chain; also called 74804_29D13A) VH: QVQLLQSGAEVKKPGSSVKVSCKASGGTFSIYAIDWVRQAPGQGLEWMGGIIPIFGTANSAQKFQGRVTITADKSTSTAYMELSSLRSEDTAVYYCARNGATSDAFDMWGQGTMVTVSS VL: EIVLTQSPGTLSLSPGERATLSCRASLSVSSNYLAWFQQRPGQAPRLLIYGVSRRATGIPDRFSGSGSGTDFTLTISRLEPEDFAVYYCQQYGSSPLTFGGGTKVEIK	8.75e-09 M (implied; unit not printed)
STLX2005 (antibody, V domains shown, Purified from hybridoma of immunized Alivamab mice; intact IgG; captured on anti-mouse IgG Fc sensors in Octet; kappa light chain; also called 74804_05B24A) VH: EVQLVDSGGGLVKPGGSLRLSCAATGFTFSNVWMSWVRQGSGKGLEWVGRIKSKTDGGTIDYAAPVKGRFTISRDDPKNTLYLQMNSLKTEDTAVYYCTTGELLGFDYWGQGTLVTVSS VL: DIVMTQSPLSLPVTPGEPASISCRSGQSLLHNNGFNCLAWYLQKPGQSPQLLIYLGSNRASGVPDRFSGSGSGTDFTLKISRVEAEDVGVFYCMQTLQTPITFGQGTRLEIK	2.72e-09 M (implied; unit not printed)

Would you kindly look at the next entry?
Data request: Form field: reported IC50, HEK-BlueIL33 NFκB Reporter Assay of STLX2025 (antibody, V domains shown, Purified from hybridoma of immunized Alivamab mice; intact IgG; captured on anti-mouse IgG Fc sensors in Octet; kappa light chain; also called 74804_25H09A) VH: QVQLVQSGAEVKKPGSSVKVSCKASGDTFSNYAITWVRQAPGQGLEWIVGFSPIFGTANYAQKFQGRVTITADKSTSTAYMELSSLISEDTAVYYCAWGSGNFNWFDPWGQGTLVTVSS VL: AIRMTQSPSSFSASTGDRVTITCRASQGISSYLAWYQQKPGKAPKLLIYAASTLQSGVPSRFSGSGSGTDFTLTISSLQSEDFATYYCQQYYSYPLTFGGGTKVEIK
Data returned: 6.55e-09 M (implied; unit not printed)
